Assay: Selectivity index, ratio of IC50 for human MRC5 cells after 24 hrs to MIC for Escherichia coli ATCC 25922
Format: toxicity, cell-based
Details: read-out: Selectivity Index
Kind request: treat 2 as inclusive, so selectivity ratio at 24 h at 2 or higher is true, anything lower is false.

>  <smiles.structure>
N=C(N)NCCc1ccc(OCc2ccc(COc3ccc(CCNC(=N)N)cc3)cc2)cc1.O=C(O)C(F)(F)F

>  <assigned.category>
true

$$$$
>  <smiles.structure>
N=C(N)NCCc1ccc(OCc2c(COc3ccc(CCNC(=N)N)cc3)c(COc3ccc(CCNC(=N)N)cc3)c(COc3ccc(CCNC(=N)N)cc3)c(COc3ccc(CCNC(=N)N)cc3)c2COc2ccc(CCNC(=N)N)cc2)cc1.O=C(O)C(F)(F)F

>  <assigned.category>
false

$$$$
>  <smiles.structure>
N=C(N)NCCc1ccc(OCc2cc(COc3ccc(CCNC(=N)N)cc3)c(COc3ccc(CCNC(=N)N)cc3)cc2COc2ccc(CCNC(=N)N)cc2)cc1.O=C(O)C(F)(F)F

>  <assigned.category>
true

$$$$
>  <smiles.structure>
N=C(N)NCCc1ccc(OCc2ccccc2COc2ccc(CCNC(=N)N)cc2)cc1.O=C(O)C(F)(F)F

>  <assigned.category>
true

$$$$
>  <smiles.structure>
N=C(N)NCCc1ccc(OCc2cc(COc3ccc(CCNC(=N)N)cc3)cc(COc3ccc(CCNC(=N)N)cc3)c2)cc1.O=C(O)C(F)(F)F

>  <assigned.category>
true

$$$$
>  <smiles.structure>
N=C(N)NCCc1ccc(OCc2ccccc2)cc1.O=C(O)C(F)(F)F

>  <assigned.category>
false

$$$$

----------
selectivity ratio at 24 h for assorted compounds
Assay: Selectivity index, ratio of IC50 for human MRC5 cells after 24 hrs to MIC for Enterococcus faecalis ATCC 29212
Format: toxicity, cell-based
Settings: read-out: Selectivity Index

>  <smiles.structure>
N=C(N)NCCc1ccc(OCc2ccc(COc3ccc(CCNC(=N)N)cc3)cc2)cc1.O=C(O)C(F)(F)F

>  <selectivity ratio at 24 h>
10.5

$$$$
>  <smiles.structure>
N=C(N)NCCc1ccc(OCc2ccccc2COc2ccc(CCNC(=N)N)cc2)cc1.O=C(O)C(F)(F)F

>  <selectivity ratio at 24 h>
12.5

$$$$
>  <smiles.structure>
N=C(N)NCCc1ccc(OCc2cc(COc3ccc(CCNC(=N)N)cc3)cc(COc3ccc(CCNC(=N)N)cc3)c2)cc1.O=C(O)C(F)(F)F

>  <selectivity ratio at 24 h>
5

$$$$
>  <smiles.structure>
N=C(N)NCCc1ccc(OCc2cc(COc3ccc(CCNC(=N)N)cc3)c(COc3ccc(CCNC(=N)N)cc3)cc2COc2ccc(CCNC(=N)N)cc2)cc1.O=C(O)C(F)(F)F

>  <selectivity ratio at 24 h>
12.2

$$$$

----------
Assay: Selectivity index, ratio of IC50 for human MRC5 cells after 24 hrs to MIC for Staphylococcus aureus ATCC 29213
Assay type: toxicity, cell-based
Settings: read-out: Selectivity Index
property.measured: selectivity ratio at 24 h

>  <smiles.structure>
N=C(N)NCCc1ccc(OCc2ccccc2COc2ccc(CCNC(=N)N)cc2)cc1.O=C(O)C(F)(F)F

>  <experimental.result>
> 100

$$$$
>  <smiles.structure>
N=C(N)NCCc1ccc(OCc2ccc(COc3ccc(CCNC(=N)N)cc3)cc2)cc1.O=C(O)C(F)(F)F

>  <experimental.result>
21

$$$$
>  <smiles.structure>
N=C(N)NCCc1ccc(OCc2cccc(COc3ccc(CCNC(=N)N)cc3)c2)cc1.O=C(O)C(F)(F)F

>  <experimental.result>
17

$$$$

----------
MIC for assorted compounds
System: Pseudomonas aeruginosa
Experiment: Antimicrobial activity against Pseudomonas aeruginosa ATCC 27853 by broth microdilution method
Type: functional
property.measured: MIC (µg/mL)

>  <smiles.structure>
N=C(N)NCCc1ccc(OCc2cc(COc3ccc(CCNC(=N)N)cc3)cc(COc3ccc(CCNC(=N)N)cc3)c2)cc1.O=C(O)C(F)(F)F

>  <property.measured>
MIC

>  <experimental.result>
16

$$$$
>  <smiles.structure>
N=C(N)NCCc1ccc(OCc2cccc(COc3ccc(CCNC(=N)N)cc3)c2)cc1.O=C(O)C(F)(F)F

>  <property.measured>
MIC

>  <experimental.result>
32

$$$$
>  <smiles.structure>
N=C(N)NCCc1ccc(OCc2ccccc2COc2ccc(CCNC(=N)N)cc2)cc1.O=C(O)C(F)(F)F

>  <property.measured>
MIC

>  <experimental.result>
16

$$$$
>  <smiles.structure>
N=C(N)NCCc1ccc(OCc2ccc(COc3ccc(CCNC(=N)N)cc3)cc2)cc1.O=C(O)C(F)(F)F

>  <property.measured>
MIC

>  <experimental.result>
4

$$$$
>  <smiles.structure>
N=C(N)NCCc1ccc(OCc2cc(COc3ccc(CCNC(=N)N)cc3)c(COc3ccc(CCNC(=N)N)cc3)cc2COc2ccc(CCNC(=N)N)cc2)cc1.O=C(O)C(F)(F)F

>  <property.measured>
MIC

>  <experimental.result>
8

$$$$
>  <smiles.structure>
N=C(N)NCCc1ccc(OCc2c(COc3ccc(CCNC(=N)N)cc3)c(COc3ccc(CCNC(=N)N)cc3)c(COc3ccc(CCNC(=N)N)cc3)c(COc3ccc(CCNC(=N)N)cc3)c2COc2ccc(CCNC(=N)N)cc2)cc1.O=C(O)C(F)(F)F

>  <property.measured>
MIC

>  <experimental.result>
16

$$$$
>  <smiles.structure>
N=C(N)NCCc1ccc(OCc2ccccc2)cc1.O=C(O)C(F)(F)F

>  <property.measured>
MIC

>  <experimental.result>
64

$$$$

----------
Test: Selectivity index, ratio of IC50 for human MRC5 cells after 24 hrs to MIC for Pseudomonas aeruginosa ATCC 27853
Format: toxicity, cell-based
Details: read-out: Selectivity Index
property.measured: selectivity ratio at 24 h

>  <smiles.structure>
N=C(N)NCCc1ccc(OCc2cccc(COc3ccc(CCNC(=N)N)cc3)c2)cc1.O=C(O)C(F)(F)F

>  <experimental.result>
1

$$$$
>  <smiles.structure>
N=C(N)NCCc1ccc(OCc2ccccc2COc2ccc(CCNC(=N)N)cc2)cc1.O=C(O)C(F)(F)F

>  <experimental.result>
6.2

$$$$
>  <smiles.structure>
N=C(N)NCCc1ccc(OCc2cc(COc3ccc(CCNC(=N)N)cc3)c(COc3ccc(CCNC(=N)N)cc3)cc2COc2ccc(CCNC(=N)N)cc2)cc1.O=C(O)C(F)(F)F

>  <experimental.result>
6

$$$$
>  <smiles.structure>
N=C(N)NCCc1ccc(OCc2ccccc2)cc1.O=C(O)C(F)(F)F

>  <experimental.result>
0.4

$$$$
>  <smiles.structure>
N=C(N)NCCc1ccc(OCc2ccc(COc3ccc(CCNC(=N)N)cc3)cc2)cc1.O=C(O)C(F)(F)F

>  <experimental.result>
5.25

$$$$
>  <smiles.structure>
N=C(N)NCCc1ccc(OCc2c(COc3ccc(CCNC(=N)N)cc3)c(COc3ccc(CCNC(=N)N)cc3)c(COc3ccc(CCNC(=N)N)cc3)c(COc3ccc(CCNC(=N)N)cc3)c2COc2ccc(CCNC(=N)N)cc2)cc1.O=C(O)C(F)(F)F

>  <experimental.result>
1.5

$$$$
>  <smiles.structure>
N=C(N)NCCc1ccc(OCc2cc(COc3ccc(CCNC(=N)N)cc3)cc(COc3ccc(CCNC(=N)N)cc3)c2)cc1.O=C(O)C(F)(F)F

>  <experimental.result>
2.5

$$$$

----------
Test: Selectivity index, ratio of IC50 for human MRC5 cells after 24 hrs to MIC for Staphylococcus aureus ATCC 25923
Assay type: toxicity, cell-based
Conditions: read-out: Selectivity Index
property.measured: selectivity ratio at 24 h

>  <smiles.structure>
N=C(N)NCCc1ccc(OCc2cc(COc3ccc(CCNC(=N)N)cc3)cc(COc3ccc(CCNC(=N)N)cc3)c2)cc1.O=C(O)C(F)(F)F

>  <operator.symbol>
>

>  <experimental.result>
39.5

$$$$
>  <smiles.structure>
N=C(N)NCCc1ccc(OCc2ccccc2)cc1.O=C(O)C(F)(F)F

>  <operator.symbol>
=

>  <experimental.result>
1.5

$$$$
>  <smiles.structure>
N=C(N)NCCc1ccc(OCc2ccccc2COc2ccc(CCNC(=N)N)cc2)cc1.O=C(O)C(F)(F)F

>  <operator.symbol>
>

>  <experimental.result>
100

$$$$
>  <smiles.structure>
N=C(N)NCCc1ccc(OCc2c(COc3ccc(CCNC(=N)N)cc3)c(COc3ccc(CCNC(=N)N)cc3)c(COc3ccc(CCNC(=N)N)cc3)c(COc3ccc(CCNC(=N)N)cc3)c2COc2ccc(CCNC(=N)N)cc2)cc1.O=C(O)C(F)(F)F

>  <operator.symbol>
=

>  <experimental.result>
3

$$$$
>  <smiles.structure>
N=C(N)NCCc1ccc(OCc2ccc(COc3ccc(CCNC(=N)N)cc3)cc2)cc1.O=C(O)C(F)(F)F

>  <operator.symbol>
=

>  <experimental.result>
21

$$$$
>  <smiles.structure>
N=C(N)NCCc1ccc(OCc2cccc(COc3ccc(CCNC(=N)N)cc3)c2)cc1.O=C(O)C(F)(F)F

>  <operator.symbol>
>

>  <experimental.result>
34.5

$$$$
